- testTarget: Bcl-2 protein (Recombinant Human Bcl-2 Protein) (Homo sapiens)
- Construct: purchased Novus NBP2-34889
- testSummary: Binding evaluation of mixture library compounds to Bcl-2 using AS-MS (affinity selection mass spectrometry)
- statedConditions: AS-MS, mixture of 1200 compounds, Bcl-2; ASMS Ratio(%)=(A−C)/B×100; replicate n = 1
measuredQuantity: ASMS ratio (%) n = 1
Entry format: amount then unit.

smilesrecord=CCOc1cncc(C#Cc2ccccc2C(=O)N2CCN(c3ccc(C(=O)NCC(F)(F)F)cc3)CC2)c1 valuemeasured=0.0%
smilesrecord=CCOc1cccc(-c2csc(C(=O)N3CCN(c4ccc(C(=O)NCC(F)(F)F)nn4)CC3)c2)c1 valuemeasured=0.0%
smilesrecord=CCOc1cncc(-c2ccc(C(=O)N3CCN(c4ccc(C(=O)NCC56CC7CC(CC(C7)C5)C6)nn4)CC3)cc2F)c1 valuemeasured=2.4%

Please turn your attention to the following entry.
`CCOc1cncc(-c2ccc(CN3CCN(c4ccc(C(=O)NCC(F)(F)F)cc4)CC3)c(CC)c2)c1` has a reported ASMS ratio (%) n = 1 of 0.0%

====

- testTarget: Bcl-2 protein (Recombinant Human Bcl-2 Protein) (Homo sapiens, UniProt P10415)
- Construct: purchased Novus NBP2-34889
- Sequence (P10415 whole entry): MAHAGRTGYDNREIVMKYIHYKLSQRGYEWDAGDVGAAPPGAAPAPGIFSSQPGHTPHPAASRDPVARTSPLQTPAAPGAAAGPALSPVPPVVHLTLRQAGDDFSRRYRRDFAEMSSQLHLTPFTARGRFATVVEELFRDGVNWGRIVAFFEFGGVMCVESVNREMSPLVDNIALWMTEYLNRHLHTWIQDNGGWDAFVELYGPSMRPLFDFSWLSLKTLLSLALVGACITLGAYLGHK
- testSummary: Binding evaluation of mixture library compounds to Bcl-2 using AS-MS (affinity selection mass spectrometry)
- statedConditions: AS-MS on the mixture of 1200 library compounds; ASMS Ratio(%)=(A−C)/B×100; replicate n = 2
This listing pairs compounds with measured ASMS ratio (%) n = 2.
Value expressed in %; do not type the unit.

Reference set (5 entries):
smilesrecord=CCOc1cncc(-c2ccccc2CN2CCN(c3ccc(C(=O)N(CC)CC)cc3)CC2)c1 measuredquantity="ASMS ratio (%) n = 2" valuemeasured=0.0
smilesrecord=CCOc1cncc(C#Cc2cncc(C(=O)N3CCN(c4ccc(C(=O)Nc5ccc(OC)cc5)nn4)CC3)c2)c1 measuredquantity="ASMS ratio (%) n = 2" valuemeasured=0.0
smilesrecord=CCOc1cccc(C#Cc2cncc(C(=O)N3CCN(c4ccc(C(=O)N(CC)CC)cc4)CC3)c2)c1 measuredquantity="ASMS ratio (%) n = 2" valuemeasured=0.8
smilesrecord=CCOc1cncc(-c2ccc(C(=O)N3CCN(c4ccc(C(=O)N(C)CC56CC7CC(CC(C7)C5)C6)cc4)CC3)cc2C)c1 measuredquantity="ASMS ratio (%) n = 2" valuemeasured=0.6
smilesrecord=CCOc1cncc(-c2ccc(CN3CCN(c4ccc(C(=O)N(C)CC56CC7CC(CC(C7)C5)C6)cc4)CC3)cc2C)c1 measuredquantity="ASMS ratio (%) n = 2" valuemeasured=−8.8

Consider `CCOc1cncc(-c2cc(C(=O)N3CCN(c4ccc(C(=O)N(CC)CC)nn4)CC3)cc(C(F)(F)F)c2)c1` . Its measured ASMS ratio (%) n = 2 is −1.7

Kindly note the recorded ASMS ratio (%) n = 2 for `CCOc1cncc(-c2ccccc2CCC(=O)N2CCN(c3ccc(C(=O)N(C)CC45CC6CC(CC(C6)C4)C5)nn3)CC2)c1` , which is −2.7

Form: compound = `CCOc1cccc(-c2ccc(CN3CCN(c4ccc(C(=O)Nc5ccc(OC)cc5)cc4)CC3)cc2F)c1` ; ASMS ratio (%) n = 2 = −1.9

GET /value?item= `CCOc1cncc(-c2cnn(-c3cc(C(=O)N4CCN(c5ccc(C(=O)N(CC)CC)nn5)CC4)cc(C(F)(F)F)c3)c2)c1` &field=ASMS ratio (%) n = 2 returns −0.7

Reported ASMS ratio (%) n = 2 ( `CCOc1cncc(C#Cc2ccccc2CN2CCN(c3ccc(C(=O)N(C)CC45CC6CC(CC(C6)C4)C5)cc3)CC2)c1` ) = −8.1

Entry `CCOc1cncc(C#Cc2cc(C(=O)N3CCN(c4ccc(C(=O)N(CC)CC)nn4)CC3)cc(C(F)(F)F)c2)c1` ; ASMS ratio (%) n = 2 = 0.0

Looking up `CCOc1cncc(-c2ccc(C(=O)N3CCN(c4ccc(C(=O)Nc5ccc(OC)cc5)cc4)CC3)cc2C)c1` , I found its ASMS ratio (%) n = 2 recorded as −1.5

Briefly, ASMS ratio (%) n = 2 measured for `CCOc1cccc(-c2ccc(CN3CCN(c4ccc(C(=O)Nc5ccc(OC)cc5)cc4)CC3)cc2C)c1` : 1.5

Query `CCOc1cncc(-c2ccc(C(=O)N3CCN(c4ccc(C(=O)N(CC)CC)cc4)CC3)cc2C)c1` yields ASMS ratio (%) n = 2 of −5.9

====

- testTarget: Bcl-2 protein (Recombinant Human Bcl-2 Protein) (Homo sapiens)
- Construct: purchased Novus NBP2-34889
- testSummary: Binding evaluation of mixture library compounds to Bcl-2 using AS-MS (affinity selection mass spectrometry)
- statedConditions: AS-MS on the mixture of 1200 library compounds; ASMS Ratio(%)=(A−C)/B×100; replicate n = 2
measuredQuantity: ASMS ratio (%) n = 2
Please state the figure in %; there is no need to write the unit.

smilesrecord=CCOc1cncc(-c2ccc(CN3CCN(c4ccc(C(=O)N(C)CC56CC7CC(CC(C7)C5)C6)cc4)CC3)c(CC)c2)c1 measuredquantity="ASMS ratio (%) n = 2" valuemeasured=−4.3

Note to self: ASMS ratio (%) n = 2 recorded for `CCOc1cncc(-c2ccc(CN3CCN(c4ccc(C(=O)Nc5ccc(OC)cc5)cc4)CC3)cc2C)c1` was −1.6

The reported ASMS ratio (%) n = 2 of the compound `CCOc1cncc(-c2ccc(CN3CCN(c4ccc(C(=O)Nc5ccc(OC)cc5)nn4)CC3)c3ccccc23)c1` was −1.4

====

- testTarget: Bcl-2 protein (Recombinant Human Bcl-2 Protein) (Homo sapiens)
- Construct: purchased Novus NBP2-34889
- testSummary: Binding evaluation of mixture library compounds to Bcl-2 using AS-MS (affinity selection mass spectrometry)
- statedConditions: AS-MS on the mixture of 1200 library compounds; ASMS Ratio(%)=(A−C)/B×100; replicate n = 1
measuredQuantity: ASMS ratio (%) n = 1
Number in %, nothing else.

Solved cases (3 shown):
smilesrecord=CCOc1cccc(-c2ccccc2CCC(=O)N2CCN(c3ccc(C(=O)Nc4ccc(OC)cc4)cc3)CC2)c1 endpointunit=% valuemeasured=1.9
smilesrecord=CCOc1cncc(-c2ccccc2CN2CCN(c3ccc(C(=O)Nc4ccc(OC)cc4)nn3)CC2)c1 endpointunit=% valuemeasured=4.1
smilesrecord=CCOc1cncc(-c2ccc(CN3CCN(c4ccc(C(=O)N(C)CC56CC7CC(CC(C7)C5)C6)nn4)CC3)cc2C)c1 endpointunit=% valuemeasured=10.7

Looking up `CCOc1cccc(C#Cc2cncc(C(=O)N3CCN(c4ccc(C(=O)N(C)CC56CC7CC(CC(C7)C5)C6)nn4)CC3)c2)c1` , I found its ASMS ratio (%) n = 1 recorded as 0.6

Reported ASMS ratio (%) n = 1 ( `CCOc1cccc(C#Cc2cncc(C(=O)N3CCN(c4ccc(C(=O)Nc5ccc(OC)cc5)nn4)CC3)c2)c1` ) = 1.1

For reference, reported ASMS ratio (%) n = 1 for `CCOc1cccc(-c2ccc(CN3CCN(c4ccc(C(=O)N(C)CC56CC7CC(CC(C7)C5)C6)cc4)CC3)cc2C)c1` stands at 1.8

Looking up `CCOc1cncc(-c2ccc(C(=O)N3CCN(c4ccc(C(=O)Nc5ccc(OC)cc5)nn4)CC3)c3ccccc23)c1` , I see its ASMS ratio (%) n = 1 listed as 2.5

Sure, the documented ASMS ratio (%) n = 1 for `CCOc1cccc(-c2cc(C(=O)N3CCN(c4ccc(C(=O)N(C)CC56CC7CC(CC(C7)C5)C6)nn4)CC3)cc(C(C)(C)C)c2)c1` is 8.9

For this compound ( `CCOc1cccc(-c2cc(OC)c(CN3CCN(c4ccc(C(=O)N(C)CC56CC7CC(CC(C7)C5)C6)cc4)CC3)c(OC)c2)c1` ), measured ASMS ratio (%) n = 1 is −1.9

The compound listed as `CCOc1cccc(-c2ccccc2CN2CCN(c3ccc(C(=O)N(C)CC45CC6CC(CC(C6)C4)C5)nn3)CC2)c1` shows ASMS ratio (%) n = 1 equal to 3.2

Short answer for `CCOc1cccc(-c2cnn(-c3cc(C(=O)N4CCN(c5ccc(C(=O)N(C)CC67CC8CC(CC(C8)C6)C7)cc5)CC4)cc(C(F)(F)F)c3)c2)c1` : ASMS ratio (%) n = 1 was 0.5

Recorded result, `CCOc1cccc(-c2cnn(-c3cc(C(=O)N4CCN(c5ccc(C(=O)N(CC)CC)nn5)CC4)cc(C(F)(F)F)c3)c2)c1` , ASMS ratio (%) n = 1: 0.0

====

- testTarget: Bcl-2 protein (Recombinant Human Bcl-2 Protein) (Homo sapiens, UniProt P10415)
- Construct: purchased Novus NBP2-34889
- testSummary: Binding evaluation of mixture library compounds to Bcl-2 using AS-MS (affinity selection mass spectrometry)
- statedConditions: second value in parentheses; (A−C)/B×100; 1200-compound mixture, Bcl-2 20 μM
# reported ASMS ratio (%); entries follow

Reference set (3 entries):
compound="CCOc1cccc(-c2ccc(CN3CCN(c4ccc(C(=O)NCC56CC7CC(CC(C7)C5)C6)nn4)CC3)c(CC)c2)c1 [B1A075-01]" valuemeasured=28.6%
compound="CCOc1cccc(-c2ccc(CN3CCN(c4ccc(C(=O)NS(=O)(=O)c5ccc(NCCSc6ccccc6)c([N+](=O)[O-])c5)cc4)CC3)c(OC)c2)c1 [B2Q053-01]" valuemeasured=15.5%
compound="CCOc1cncc(-c2ccc(CN3CCN(c4ccc(C(=O)NS(=O)(=O)c5ccc(NCCSc6ccccc6)c([N+](=O)[O-])c5)cc4)CC3)c(OC)c2)c1 [B2Q054-01]" valuemeasured=65.0%

API: the following record is the query input.
Sample CCOc1cccc(-c2ccccc2CN2CCN(c3ccc(C(=O)NS(=O)(=O)c4ccc(NCCSc5ccccc5)c([N+](=O)[O-])c4)cc3)CC2)c1 [B2Q045-01] , system: Bcl-2 protein (Recombinant Human Bcl-2 Protein) (Homo sapiens, UniProt P10415). Its ASMS ratio (%) is 49.9%
